These data points were gathered from patent US20050069542A1.

Molecular target: T1, flag-tagged soluble TL3 (amino acids 105-251 of SEQ ID NO:234) (Homo sapiens (Human), UniProt O75888 105-250)
T1 construct: Heterologous flag-tagged control protein, immobilized in the ELISA; also called flagged tagged TL-3; not shown: Flag tag
T1 sequence: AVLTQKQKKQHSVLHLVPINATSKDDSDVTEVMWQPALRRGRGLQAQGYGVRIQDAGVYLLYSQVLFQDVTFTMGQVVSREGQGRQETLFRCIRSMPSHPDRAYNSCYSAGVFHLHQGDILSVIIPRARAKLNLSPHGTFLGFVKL
Experiment: phage ELISA on immobilized flag-tagged soluble TL3
observation.type: binding result

GMBC657 (scFv) scFv: QMQLMQSGGGLVKPGGSLRLSCAGSGFKFSDAWMNWVRQAPGKGLEWVGRIKSKGSGGTIEYAAPVKDRFIISRDDSKDTLYLQMNSLKTEDTALYYCTWDWDFYYGMNVWGQGTLVTVSSGGGGSGGGGSGGGGSSELTQDPAVSVALGQTVRITCQGDSLRSYYASWYQQKPGQAPVLVIYGKNNRPSGIPDRFSGSSSGNTASLTITGAQAEDEADYYCNSRDSSGNHVVFGGGTKLTVLG ... no binding
GMBC647 (scFv) scFv: EVQLVESGGGLVKPGGSLRLSCAASGFTFSDAWMNWVRQAPGKGLEWVGRIKSKGSGGTIDYAAPVKDRFTISRDDSKNTLYLQMNSLKTEDTALYYCTWDWDFYYGMNVWGQGTTVTVSSGGGGSGGGGSGGGGSQSVLTQPASVSGSPGQSITISCTGTSSDVGGYNYVSWYQQHPGKAPKLMIYEGSKRPSGVSNRFSGSKSGNTASLTISGLQAEDEADYYCSSYTTRSTRVFGGGTKLTVLG ... no binding
GMBC692 (scFv) scFv: EVQLVQSGGGLVKPGGSLRLSCAASGFTFSDAWMNWVRQAPGKGLEWVGRIKSKGSGGTIDYAAPVKDRFTISRDDSKNTLYLQMNSLKTEDTALYYCTWDWDFYYGMNVWGRGTLVTVSSGGGGSGGGGSGGGGSQSVLTQPASVSGSPGQSITISCTGTSSDVGGYNYVSWYQQHPGKAPKLMIYEGSKRPSGVSNRFSGSKSGNTASLTISGLQAEDEADYYCSSYTTRSTRVFGGGTKLTVLG ... no binding
